- TEST_NAME: Pharmacokinetic study in rats after single oral administration of ZGI, DGE, PA or S. officinalis extract (plasma, UHPLC-MS/MS)
- Type: in vivo, Sprague-Dawley rats
- STUDY_CONDITIONS: male, Sprague-Dawley; analyte ZGI in rat plasma; single oral dose of the row's substance (extract 0.55 g/kg, ZGI 0.03 g/kg); n = 6; read-out: t1/2 of ZGI (converted)
MEASURED_ATTRIBUTE: half-life (min)
Write the answer as a number in min, unit excluded.

query: Look up half-life for this compound: C[C@@H]1CC[C@]2(C(=O)O[C@@H]3O[C@H](CO)[C@@H](O)[C@H](O)[C@H]3O)CC[C@]3(C)C(=CC[C@@H]4[C@@]5(C)CC[C@H](O[C@@H]6OC[C@H](O)[C@H](O)[C@H]6O)C(C)(C)[C@@H]5CC[C@]43C)[C@@H]2[C@]1(C)O [ZGI, Ziyuglycoside I]
result: 660
